pIC50 for Proto-oncogene tyrosine-protein kinase receptor Ret (Homo sapiens) - collated from the literature.
pIC50: −log10 of the molar value.

CCOc1ccc(CNC(=O)C2CC[C@](O)(c3cc(C)cc(Nc4cc(C5CC5)[nH]n4)n3)C2)cc1 (stereo partly shown) ... > 8.00
N#Cc1cnn2cc(C3=CCOCC3)cc(-c3ccc(N4CC5CC(C4)N5Cc4ccc5[nH]ccc5c4)nc3)c12 ... 8.92

For each listed entry, give its pIC50.
1. CCOc1cc(=O)[nH]cc1-c1ccc(CC(=O)Nc2ccc(CC(C)(C)CO)c(C(F)(F)F)c2)cc1F
2. COC1(C(=O)N[C@@H](C)c2ccc(-n3cc(F)cn3)nc2)CN(c2nc(Nc3cc(C)[nH]n3)cc(C)c2F)C1

["> 7.00", "> 8.00"]

Required: pIC50, one value per molecule below.
1. Cc1nc(-c2c[nH]c(=O)c(OCCO)c2)ncc1NC(=O)Nc1cc(C(F)(F)F)c(CN2CCN(CCO)CC2)cc1F
2. COc1ccc(F)c(C(=O)c2c[nH]c3ncc(-c4cccs4)cc23)c1
3. O=C(c1cccc(O)c1F)c1c[nH]c2ncc(-c3cncnc3)cc12

1: > 7.00; 2: ≥ 5.00; 3: ≥ 5.00

---

We begin with IC50 values for Proto-oncogene tyrosine-protein kinase receptor Ret (Homo sapiens), as collected from the published literature.

Consider the following items and state reported IC50 for each.
1. COCc1cccc2[nH]c(-c3n[nH]c4ncc(-c5cncc(CNC(C)C)c5)cc34)nc12
2. COCc1cccc2[nH]c(-c3n[nH]c4ncc(-c5ccncc5)cc34)nc12
3. CC(C)C(=O)N[C@H]1[C@@H]2CN(c3ccc(-c4cc(-c5cnn(C)c5)cn5ncc(C#N)c45)cn3)C[C@@H]21
4. Cc1cc(C(=O)c2c[nH]c3nccc(-c4cccc(C(N)=O)c4)c23)no1
5. CO[C@]1(C(=O)N[C@@H](C)c2cnc(-n3cc(F)cn3)cn2)C[C@H](c2cc(C)nc(Nc3cc(C)[nH]n3)n2)C1
6. CCOc1ccc(NC(=O)Nc2ccc(-c3c[nH]c(=O)c4ccoc34)cc2F)cc1C(F)(F)F
7. CS(=O)(=O)c1cccc(-c2ccnc3[nH]cc(C(=O)c4cccc(Cl)c4Cl)c23)c1
8. COCc1cccc2[nH]c(-c3n[nH]c4ncc(-c5c[nH]c6ccccc56)cc34)nc12

1. 2230 nM
2. > 100000 nM
3. ≤ 10 nM
4. ≤ 10000 nM
5. < 1 nM
6. < 100 nM
7. ≤ 10000 nM
8. > 100000 nM

Look up IC50 for the entries below, preserving their order.
1. COC1(C(=O)NCc2ccc(-n3cc(F)cn3)nc2)CN(c2cc(C(F)F)cc(Nc3cc(C)[nH]n3)n2)C1
2. CCOc1cc(-c2ccc(CC(=O)Nc3ccc(OCCO)c(C(F)(F)F)c3)c(F)c2)c[nH]c1=O
3. CCOc1cc(-c2ncc(NC(=O)Nc3cc(OCCN4CCOCC4)cc(C(F)(F)F)c3)c(C)n2)c[nH]c1=O
4. Fc1cnc(F)c(F)c1Cc1c[nH]c2ncc(-c3ccsc3)cc12
5. Cc1cc(Nc2cc(C)[nH]n2)nc([C@H]2CC[C@@H](C(=O)NCc3ccc(-n4cccn4)nc3)CC2)n1
6. CCOc1cc(-c2ccc(CC(=O)Nc3ccc(CC(C)(C)CO)c(C(F)(F)F)c3)c(F)c2)c[nH]c1=O

1: < 10 nM; 2: < 100 nM; 3: < 100 nM; 4: ≤ 10000 nM; 5: > 100 nM; 6: < 100 nM

# query: IC50 of entry CCOc1cc(=O)[nH]cc1-c1ncc(NC(=O)Nc2ccc(CN(C)C)c(C(F)(F)F)c2)c(C)n1 < 100 nM
